Target: hiNOS (Homo sapiens)
Experiment: DAN assay, hiNOS expressed in transiently transfected HEK293 cells
Details: HEK293 cells transiently transfected with hiNOS
pEC50: −log10 of the molar value.
We begin with a simple list: items and their reported pEC50.

- compound: "Cc1cc(C2CCCN2CCNCc2ccc3c(c2)OCCO3)nc(-n2ccnc2)n1 (stereo not shown)"
  pEC50: "> 6.00"
- compound: "CCOC(=O)C1CCC(C(=O)NCCc2ccc3c(c2)OCO3)N1c1nc(-n2ccnc2)ns1 (racemic)"
  pEC50: "> 6.00"
- compound: "CN(CCCNCc1ccc2c(c1)OCO2)c1nc(-n2cnc(I)c2)ns1"
  pEC50: "< 4.30"
- compound: "COc1ccc(CNCCNC(C)c2cc(C)nc(-n3ccnc3)n2)cc1O (stereo not shown)"
  pEC50: "> 4.30"
- compound: "Cc1cc(C(C)N2CCC[C@@H]2C(=O)NCc2ccc3c(c2)OCO3)nc(-n2ccnc2)n1 (mixture of isomers)"
  pEC50: "> 6.00"
- compound: "Cc1cc(C(C)(C)CNC(=O)NCc2ccc3c(c2)OCO3)nc(-n2ccnc2)n1"
  pEC50: "> 6.00"
- compound: "Cc1cc(C2CCCCN2CCNCc2ccc3c(c2)OCO3)nc(-n2ccnc2)n1 (stereo not shown)"
  pEC50: "> 6.00"
